// data source = patent US20100048640A1

Test system: summer fruit tortrix (Adoxophyes orana fasciata)
measurement protocol: Test Example 4: apple seedling spray, summer fruit tortrix larvae, controlling value
Format: in vivo
assay conditions: 168 h, 500 ppm active ingredient, flowable formulation, 20 mL on apple seedling, first-instar larvae, seven days after spraying
observation type: pest or weed control at 500 ppm
Enter the number, and then the unit.

Some entries whose results are on file:
{"columns": ["compound", "observation type", "measured"],
 "data": [
  ["COC(=O)N(CC=C(Cl)Cl)NC(=O)c1cc(Br)cc(Br)c1NC(=O)c1cc(Br)nn1-c1ncccc1Cl [1-64]", "pest or weed control at 500 ppm", "100%"],
  ["C=CCN(NC(=O)OC)C(=O)c1cc(Br)cc(Br)c1NC(=O)c1cc(Br)nn1-c1ncccc1Cl [1-7]", "pest or weed control at 500 ppm", "100%"]
]}

Note: attention shifts to another entry.
Query block: // lookup pest or weed control at 500 ppm | system=summer fruit tortrix (Adoxophyes orana fasciata) | key= COC(=O)N(NC(=O)c1cc(Cl)cc(C)c1NC(=O)c1cc(Br)nn1-c1ncccc1Cl)C1CCCCC1 [1-60]
Result block: 100%
